Where do the numbers come from? From paper PMC11206297.

Kindly supply the reported melting point values for the records listed here.

O=C(c1cc(Cc2n[nH]c(=O)c3ccccc23)ccc1F)N1CCN(S(=O)(=O)c2ccc(NC(=S)NCc3cccnc3)cc2)CC1 [DDY01]    189 to 190 °C
NC(=O)c1ccccc1OCc1ccc(F)c(C(=O)N2CCN(S(=O)(=O)c3ccc(NC(=S)NCc4cccnc4)cc3)CC2)c1 [DDY04]    125 to 126 °C
NC(=O)c1cccc2[nH]c(C(=O)N3CCN(S(=O)(=O)c4ccc(NC(=S)NCc5cccnc5)cc4)CC3)nc12 [DDY10]    > 250 °C
NC(=O)c1cc(F)ccc1OCc1ccc(F)c(C(=O)N2CCN(S(=O)(=O)c3ccc(NC(=O)NCc4cccnc4)cc3)CC2)c1 [DDY07]    122 to 123 °C

// each listed compound needs a value for melting point
1. O=C(NCc1cccnc1)Nc1ccc(S(=O)(=O)N2CCN(C(=O)c3cc(Cc4n[nH]c(=O)c5ccccc45)ccc3F)CC2)cc1 [DDY02]
2. NC(=O)c1ccccc1OCc1cccc(C(=O)N2CCN(S(=O)(=O)c3ccc(NC(=O)NCc4cccnc4)cc3)CC2)c1 [DDY08]
3. NC(=O)c1cc(F)ccc1OCc1cccc(C(=O)N2CCN(S(=O)(=O)c3ccc(NC(=O)NCc4cccnc4)cc3)CC2)c1 [DDY09]
4. NC(=O)c1cccc2[nH]c(C(=O)N3CCN(S(=O)(=O)c4ccc(NC(=O)NCc5cccnc5)cc4)CC3)nc12 [DDY11]

## Result
["197 to 198 °C", "202 to 203 °C", "147 to 148 °C", "> 250 °C"]

Please look at the items below and tell me melting point for each one, in order.
1. O=C(NCc1cccnc1)Nc1ccc(S(=O)(=O)N2CCN(C(=O)CCc3nc4ccccc4c(=O)[nH]3)CC2)cc1 [DDY03]
2. NC(=O)c1ccccc1OCc1ccc(F)c(C(=O)N2CCN(S(=O)(=O)c3ccc(NC(=O)NCc4cccnc4)cc3)CC2)c1 [DDY05]

## Result
120 to 121 °C
119 to 120 °C

====

target: UniProt P43490
Sequence (P43490 whole entry): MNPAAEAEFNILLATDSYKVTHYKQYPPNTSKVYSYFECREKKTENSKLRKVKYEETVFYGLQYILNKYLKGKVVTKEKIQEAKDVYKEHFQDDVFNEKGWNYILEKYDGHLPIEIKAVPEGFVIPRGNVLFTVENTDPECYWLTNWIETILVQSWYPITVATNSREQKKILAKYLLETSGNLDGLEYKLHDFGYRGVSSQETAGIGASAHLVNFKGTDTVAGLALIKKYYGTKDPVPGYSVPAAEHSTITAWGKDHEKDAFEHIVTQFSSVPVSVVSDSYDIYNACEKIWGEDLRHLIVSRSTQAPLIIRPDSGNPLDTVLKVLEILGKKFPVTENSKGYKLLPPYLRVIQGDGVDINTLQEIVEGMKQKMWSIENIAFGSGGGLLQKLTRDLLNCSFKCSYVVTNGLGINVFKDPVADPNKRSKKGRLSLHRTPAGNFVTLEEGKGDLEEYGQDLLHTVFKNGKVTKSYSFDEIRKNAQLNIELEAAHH
measure name: IC50 (µM)
Numbers only, in µM.

NC(=O)c1cccc2[nH]c(C(=O)N3CCN(S(=O)(=O)c4ccc(NC(=O)NCc5cccnc5)cc4)CC3)nc12 [DDY11]    0.034

Now look at this entry.
## Task Look up UniProt P43490 data: IC50 of O=C(NCc1cccnc1)Nc1ccc(S(=O)(=O)N2CCN(C(=O)CCc3nc4ccccc4c(=O)[nH]3)CC2)cc1 [DDY03] , then report it.
## Result 0.055

====

target: PARP1 (Homo sapiens, UniProt P09874); test: PARP1 enzymatic inhibition assay (ELISA, chemiluminescence); assay type: biochemical; settings: mean ± SD of at least two independent experiments in duplicate
Sequence (P09874 whole entry): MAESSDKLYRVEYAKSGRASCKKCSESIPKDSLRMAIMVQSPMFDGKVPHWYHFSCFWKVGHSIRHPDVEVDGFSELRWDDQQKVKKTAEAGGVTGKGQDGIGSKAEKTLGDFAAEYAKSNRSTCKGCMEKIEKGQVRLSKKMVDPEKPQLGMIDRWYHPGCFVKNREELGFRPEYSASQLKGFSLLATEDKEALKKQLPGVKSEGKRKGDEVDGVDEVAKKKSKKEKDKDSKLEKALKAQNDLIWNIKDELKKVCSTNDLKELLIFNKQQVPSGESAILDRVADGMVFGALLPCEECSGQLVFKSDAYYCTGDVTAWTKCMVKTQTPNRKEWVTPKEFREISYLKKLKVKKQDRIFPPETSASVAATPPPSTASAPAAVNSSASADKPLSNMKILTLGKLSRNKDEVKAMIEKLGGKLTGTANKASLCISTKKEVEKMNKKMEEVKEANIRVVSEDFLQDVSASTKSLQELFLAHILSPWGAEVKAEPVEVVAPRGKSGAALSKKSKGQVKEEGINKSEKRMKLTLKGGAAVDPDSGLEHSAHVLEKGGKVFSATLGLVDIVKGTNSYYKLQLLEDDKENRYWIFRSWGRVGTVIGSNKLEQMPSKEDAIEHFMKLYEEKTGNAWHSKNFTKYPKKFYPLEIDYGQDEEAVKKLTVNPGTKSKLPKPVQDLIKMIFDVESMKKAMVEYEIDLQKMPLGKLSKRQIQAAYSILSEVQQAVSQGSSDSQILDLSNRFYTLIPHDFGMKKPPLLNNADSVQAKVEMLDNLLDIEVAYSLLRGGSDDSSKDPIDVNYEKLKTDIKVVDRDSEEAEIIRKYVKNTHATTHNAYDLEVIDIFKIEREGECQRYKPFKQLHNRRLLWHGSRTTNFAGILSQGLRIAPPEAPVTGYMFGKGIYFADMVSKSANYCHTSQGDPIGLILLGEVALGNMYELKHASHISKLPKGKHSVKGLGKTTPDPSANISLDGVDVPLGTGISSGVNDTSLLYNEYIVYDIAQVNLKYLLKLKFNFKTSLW
For each of the compounds below, state its pIC50.
Give bare numbers, as −log10 of the molar value.

For orientation, consider the following solved cases.
O=C(NCc1cccnc1)Nc1ccc(S(=O)(=O)N2CCN(C(=O)CCc3nc4ccccc4c(=O)[nH]3)CC2)cc1 [DDY03]    7.60
NC(=O)c1cccc2[nH]c(C(=O)N3CCN(S(=O)(=O)c4ccc(NC(=O)NCc5cccnc5)cc4)CC3)nc12 [DDY11]    7.85

For every record below, what is its pIC50?
1. O=C(c1cc(Cc2n[nH]c(=O)c3ccccc23)ccc1F)N1CCN(S(=O)(=O)c2ccc(NC(=S)NCc3cccnc3)cc2)CC1 [DDY01]
2. O=C(NCc1cccnc1)Nc1ccc(S(=O)(=O)N2CCN(C(=O)c3cc(Cc4n[nH]c(=O)c5ccccc45)ccc3F)CC2)cc1 [DDY02]

## Result
1. 8.05
2. 7.30
